# TARGET_ENTITY: UniProtKB O15438
# Sequence (O15438 whole entry): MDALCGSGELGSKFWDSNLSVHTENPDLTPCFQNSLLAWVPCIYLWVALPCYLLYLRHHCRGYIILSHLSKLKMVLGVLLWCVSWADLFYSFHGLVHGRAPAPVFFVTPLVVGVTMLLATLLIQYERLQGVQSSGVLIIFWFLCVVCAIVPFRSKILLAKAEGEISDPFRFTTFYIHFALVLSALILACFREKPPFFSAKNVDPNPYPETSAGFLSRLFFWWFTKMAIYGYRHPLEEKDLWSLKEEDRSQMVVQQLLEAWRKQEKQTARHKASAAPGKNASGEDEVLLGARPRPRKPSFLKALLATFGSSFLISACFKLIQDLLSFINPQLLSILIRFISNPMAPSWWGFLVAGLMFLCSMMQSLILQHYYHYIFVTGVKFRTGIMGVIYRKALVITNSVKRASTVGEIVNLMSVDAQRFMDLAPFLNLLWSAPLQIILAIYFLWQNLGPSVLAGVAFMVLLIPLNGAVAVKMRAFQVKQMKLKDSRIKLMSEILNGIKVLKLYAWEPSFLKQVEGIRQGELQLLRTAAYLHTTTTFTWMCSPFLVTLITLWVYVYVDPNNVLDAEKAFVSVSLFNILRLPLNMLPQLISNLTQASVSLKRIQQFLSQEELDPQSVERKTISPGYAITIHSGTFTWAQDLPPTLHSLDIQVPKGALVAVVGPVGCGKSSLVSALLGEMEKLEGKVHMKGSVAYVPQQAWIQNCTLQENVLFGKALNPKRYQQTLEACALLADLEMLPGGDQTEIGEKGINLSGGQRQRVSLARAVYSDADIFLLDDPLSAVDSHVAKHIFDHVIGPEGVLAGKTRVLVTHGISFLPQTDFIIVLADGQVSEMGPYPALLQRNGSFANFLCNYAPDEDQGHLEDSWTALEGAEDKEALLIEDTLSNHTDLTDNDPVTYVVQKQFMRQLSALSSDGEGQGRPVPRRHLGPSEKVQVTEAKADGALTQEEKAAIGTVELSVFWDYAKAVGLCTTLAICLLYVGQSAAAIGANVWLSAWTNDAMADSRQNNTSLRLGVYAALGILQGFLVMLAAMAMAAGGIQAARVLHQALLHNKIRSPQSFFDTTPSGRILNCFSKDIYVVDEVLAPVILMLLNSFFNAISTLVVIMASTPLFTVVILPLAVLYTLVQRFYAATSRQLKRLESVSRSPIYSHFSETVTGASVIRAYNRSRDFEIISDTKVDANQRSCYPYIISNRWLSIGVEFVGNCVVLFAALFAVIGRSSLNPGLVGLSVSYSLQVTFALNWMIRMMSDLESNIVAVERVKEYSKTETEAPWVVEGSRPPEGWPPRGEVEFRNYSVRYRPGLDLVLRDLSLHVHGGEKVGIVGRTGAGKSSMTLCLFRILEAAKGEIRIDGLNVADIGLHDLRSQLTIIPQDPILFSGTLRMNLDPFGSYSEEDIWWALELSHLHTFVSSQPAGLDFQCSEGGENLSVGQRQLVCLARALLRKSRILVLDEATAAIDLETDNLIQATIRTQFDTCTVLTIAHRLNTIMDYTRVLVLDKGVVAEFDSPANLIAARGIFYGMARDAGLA
# ASSAY_METHOD_TEXT: inhibition of ATP-dependent [3H]-E217G uptake, membrane vesicles
# EXPERIMENTAL_PARAMETERS: 10 μM E217G, 5 min, 37 °C, 100 μM compound, value is remaining uptake
VALUE_KIND: E217G uptake, % of control at 100 μM (%)
State the answer as a number, implicitly in %.

These solved cases illustrate the format of a correct answer.
COMPOUND	OBSERVED_RESULT
NS(=O)(=O)c1cc2c(cc1Cl)NC=NS2(=O)=O [Chlorothiazide]	37.4
CC[C@H](C)C(=O)O[C@H]1C[C@@H](C)C=C2C=C[C@H](C)[C@H](CC[C@@H]3C[C@@H](O)CC(=O)O3)[C@H]21	63.5
COC(=O)N[C@H](C(=O)N[C@@H](Cc1ccccc1)[C@@H](O)CN(Cc1ccc(-c2ccccn2)cc1)NC(=O)[C@@H](NC(=O)OC)C(C)(C)C)C(C)(C)C	55.0
CNC(=O)c1cc(Oc2ccc(NC(=O)Nc3ccc(Cl)c(C(F)(F)F)c3)c(F)c2)ccn1	69.5
OCCN(CCO)c1nc(N2CCCCC2)c2nc(N(CCO)CCO)nc(N3CCCCC3)c2n1	52.1

Attention now turns to another entry.
Per the records, this compound ( CCOC(=O)C1=C(C)NC(C)=C(C(=O)OC)C1c1cccc(Cl)c1Cl (stereo not drawn) ) has E217G uptake, % of control at 100 μM equal to 45.8
